Tested on: MILI (PIWIL2) piRISC loaded with L1MC piRNA (26 nt);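 further: 1 nM active piRISC with 0.1 nM target library at 33 °C single turnover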
method_summary: pre-steady-state target cleavage rate (min^-1); guide: L1MC piRNA 5'p-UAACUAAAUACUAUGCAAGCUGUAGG; higher = faster piRNA-guided slicing of the target
test_context: auxiliary factor: 500 nM mouse GTSF1
Assign class by pre-steady-state target cleavage rate: not lower than 0.1 means Condition met; lower than 0.1 means Condition not met.

construct_sequence: UCCUGGAUCAGCUACCAUAGUAUUUAGUAA
study_system: MILI (PIWIL2) piRISC loaded with L1MC piRNA (26 nt);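 further: 1 nM active piRISC with 0.1 nM target library at 33 °C single turnover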
qualitative_label: Condition met

Given the entry UCCUCCUACAGCUGUGCAUAGUAUUUAGUUA , answer whether its pre-steady-state target cleavage rate meets or surpasses 0.1. Condition met

Given the entry UCCUGGAUGUCCUUCCAUAGUAUUUAGUAA , answer whether its pre-steady-state target cleavage rate meets or surpasses 0.1. Condition not met

----------
Test system: MILI (PIWIL2) piRISC loaded with L1MC piRNA (26 nt);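 further: 1 nM active piRISC with 0.1 nM target library at 33 °C single turnover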
method_summary: pre-steady-state target cleavage rate (min^-1); guide: L1MC piRNA 5'p-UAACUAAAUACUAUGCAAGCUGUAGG; higher = faster piRNA-guided slicing of the target
test_context: auxiliary factor: 500 nM mouse GTSF1
Assign class by pre-steady-state target cleavage rate: not lower than 0.05 means T; lower than 0.05 means F.

construct_sequence: UCCUGCUACAGCAUGCAUAGUAUUUACUUA
qualitative_label: T

Given the entry UCCUGGAUCAGGUUGCAUAGAAUUUAGUUA , answer whether its pre-steady-state target cleavage rate meets or surpasses 0.05. F

Given the entry UCCUGGAACUGCUUGCAUAGUAUUUAGAUA , answer whether its pre-steady-state target cleavage rate meets or surpasses 0.05. T

----------
Test system: MILI (PIWIL2) piRISC loaded with L1MC piRNA (26 nt);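 further: 1 nM active piRISC with 0.1 nM target library at 33 °C single turnover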
method_summary: pre-steady-state target cleavage rate (min^-1); guide: L1MC piRNA 5'p-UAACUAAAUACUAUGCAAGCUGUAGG; higher = faster piRNA-guided slicing of the target
test_context: auxiliary factor: 500 nM mouse GTSF1
measured_metric: pre-steady-state target cleavage rate
One number for each entry.

construct_sequence: UCCUGGUACAGCUUGCAUAGUACUUUAGUUA
measured_metric: pre-steady-state target cleavage rate
value_reported: 0.147

Answer for every listed entry: what is its pre-steady-state target cleavage rate? The entries follow.
1. UCCUGGAUGUGCUUGCAUAGAAUUUAGUAA
2. UCCUGGAACAGCUUGCAAAGUAUUUAGUAA
3. UCCUGGAUCAGCUUGCAUAGUAUAUAGAUA
4. UCCUGGUACACCUUGCAUAGUUUUUAGUUA
5. UCCUGGAUGUCCUUGGAUAGUAUUUACUUA

1. 0.00482
2. 0.158
3. 0.0407
4. 0.0288
5. 0.014

Answer for every listed entry: what is its pre-steady-state target cleavage rate? The entries follow.
1. UCCUGGUACAAGCUUGCAUAGUAUUUAGUUA
2. UCCUGGAACACCUUGCAUAGUAUUUACAAA
3. UCCUGGAUGUGCUUGCAUAGUAUAUAGUAA
4. UCCUGCACAGCUUGCAUAGUAUUUAGUUA
5. UCCUGGUACAGCUUGCAAUGUAUUUACAAA
6. UCCUCCUAGUGCUUGCAUAGUAUUUAGUUA

1. 0.196
2. 0.071
3. 0.0253
4. 0.317
5. 0.00784
6. 0.164

----------
Give pre-steady-state target cleavage rate for every item shown.
Test system: MILI (PIWIL2) piRISC loaded with L1MC piRNA (26 nt);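 further: 1 nM active piRISC with 0.1 nM target library at 33 °C single turnover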
method_summary: pre-steady-state target cleavage rate (min^-1); guide: L1MC piRNA 5'p-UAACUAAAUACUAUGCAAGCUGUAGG; higher = faster piRNA-guided slicing of the target
test_context: auxiliary factor: 500 nM mouse GTSF1
One number for each entry.

Please review the following examples before continuing.
construct_sequence: UCCUGCUACAGCUUGCAUAGUAUUUGUUA
pre-steady-state target cleavage rate: 0.124
//
construct_sequence: UCCUGCUACAGCUGCAUAGUAUUUAGUUA
pre-steady-state target cleavage rate: 0.271
//
construct_sequence: UCCUGCUACAGCUUGCAUAGUACUUUAGUUA
pre-steady-state target cleavage rate: 0.194
//
construct_sequence: UCCUGGAACAGCUUGCAUAGUAUUAUGUUA
pre-steady-state target cleavage rate: 0.105

Answer for every listed entry: what is its pre-steady-state target cleavage rate? The entries follow.
1. UCCUCGUACAGGUUGCAUAGUAUUUAGUUA
2. UCCUGGUACAGCUUGCAUAGUAUUUUCAUA
3. UCCUCCAACAGCUUGCAUAGUAAUUAGUUA
4. UCCUGGAUGUGCUUGGAUAGAAUUUAGUUA
5. UCCUGGAACAGCUUGCAUAGUACUUAGUUA
6. UCCUGGAACAGCUUGCAUAGUAUUUGAGUUA
7. UCCUCCUACAGCUUGCAUAGUAUUUAGUCUA

0.249
0.0352
0.228
0.00729
0.243
0.209
0.154

Answer for every listed entry: what is its pre-steady-state target cleavage rate? The entries follow.
1. UCCUGGAACAGCUUGCAUAGUAAAUAGUAA
2. UCCUGGUACAGGUUGCAUAGUAAUUAGUUA
3. UCCUGGUACAGCUUGCAUAGUAUUUAUGUUA
4. UCCUGGAUCUGCUUCCAUAGUAUUUAGUUA
5. UCCUGGUACAGCUUGCAUAGUAUUUAGAAA

1: 0.143; 2: 0.325; 3: 0.147; 4: 0.0239; 5: 0.162

Answer for every listed entry: what is its pre-steady-state target cleavage rate? The entries follow.
1. UCCUGCUACAGCUUGCAUAGAAUUUUCAAA
2. UCCUGCUACAGCUUGCAUAGUAUAUUAGUUA
3. UCCUGCUACAGCAAGCAUAGUAUUUAGUAA
4. UCCUGGAUGUGCUUGCAUCGUAUUUAGUUA
5. UCCUGGAUGUCCUUAGCAUAGUAUUUAGUUA
6. UCCUGCUACACGAUGCAUAGUAUUUAGUUA
7. UCCUGGAUGUCCUUGCAUAGUUAUUAGUUA

1. 0.0169
2. 0.389
3. 0.281
4. 0.0778
5. 0.0724
6. 0.241
7. 0.00901

Answer for every listed entry: what is its pre-steady-state target cleavage rate? The entries follow.
1. UCCUGCUACAGCUUGCUUAGUAUUUAGUAA
2. UCCUGCUACAGGUUGCAUACUAUUUAGUUA
3. UCCUGGUACAGCUUUCAUAGUAUUUAGUUA
4. UCCUGGAUGUGCUUGCAGAGUAUUUAGUUA

1: 0.119; 2: 0.0385; 3: 0.22; 4: 0.0463

Briefly, pre-steady-state target cleavage rate measured for UCCUCCUACAGCUUGCAUUGUAUUUAGAUA : 0.119

----------
Tested on: EfPiwi piRISC loaded with L1MC piRNA (26 nt)
method_summary: pre-steady-state target cleavage rate (min^-1); auxiliary factor: 500 nM Ephydatia muelleri Gtsf1; guide: L1MC piRNA 5'p-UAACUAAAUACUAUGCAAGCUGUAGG; higher = faster piRNA-guided slicing of the target
Give pre-steady-state target cleavage rate for every item shown.
Answers are plain numbers.

Please review the following examples before continuing.
construct_sequence: UCCUGCUUCAGCUUGCAUAGUAUUUUGUUA
pre-steady-state target cleavage rate: 0.00635
//
construct_sequence: UCCUGCUACAGCUUGCAUAGUAUUUAGAUA
pre-steady-state target cleavage rate: 0.00539
//
construct_sequence: UCCUGGAACAGCUUGCUUAGUAUUUUGUUA
pre-steady-state target cleavage rate: 0.00494
//
construct_sequence: UCCUGGUACAGCUUCGAUAGUAUUUACAAA
pre-steady-state target cleavage rate: 0.00595
//
construct_sequence: UCCUGGAACAAGCUUGCAUAGUAUUUAGUUA
pre-steady-state target cleavage rate: 0.0156

Then this sequence:
Noted pre-steady-state target cleavage rate for UCCUGGAACAGCUUGCAAAGUAUAUAGUUA , tested on EfPiwi piRISC loaded with L1MC piRNA (26 nt): 0.00745

----------
Tested on: EfPiwi piRISC loaded with L1MC piRNA (26 nt)
method_summary: pre-steady-state target cleavage rate (min^-1); auxiliary factor: 500 nM Ephydatia muelleri Gtsf1; guide: L1MC piRNA 5'p-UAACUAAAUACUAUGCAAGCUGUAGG; MIWI and MILI are mouse PIWI proteins and EfPiwi is from a freshwater sponge; tags in brackets are library labels; higher = faster piRNA-guided slicing of the target
Please assign a class to every record based on measured pre-steady-state target cleavage rate, with ranges label 0 (below 0.004), label 1 (0.004 to below 0.008), label 2 (0.008 or more)

construct_sequence: UCCUGGAACUCGUUGCAUAGUAUUUAGAAA
qualitative_label: label 1

construct_sequence: UCCUGGUAGAGCUUGCUUAGUAUUUAGUUA
qualitative_label: label 2

Dear colleague, I would appreciate it if you could identify the bin for UCCUGCUACAGCUUGCAUAGUAUAAUGAAA and reply at your convenience. label 1

Dear colleague, I would appreciate it if you could identify the bin for UCCUGGUACAACUUGCAUAGUAUUUAGUUA and reply at your convenience. label 2

Dear colleague, I would appreciate it if you could identify the bin for UCCUGCUACAGCUUGCAUAGUAUUUAGUUUA and reply at your convenience. label 2

Dear colleague, I would appreciate it if you could identify the bin for UCCUGGUACAGCUAGGAUAGUAUUUAGUUA and reply at your convenience. label 0

Dear colleague, I would appreciate it if you could identify the bin for UCCUGCUACAGCUUGCUUAGUAUUUAGUAA and reply at your convenience. label 1
